System: SK-OV-3
measurement.protocol: NCI tumour cell line growth inhibition, 48 h
Active and inactive are the calls of the source. No stated cut-off is given here; in the data, active = GI50 up to about 1.1 µM and inactive = higher.
Your answer must be one of the following: class 1 for active, class 0 for inactive

Incoming: Query: recorded result category for O=C(N/C(=C\c1ccc2c(c1)OCO2)c1nc2ccccc2[nH]1)c1ccccc1 in this test
Outgoing: class 0

Incoming: Similarly, CN1CCN(c2ccc([N+](=O)[O-])c3no[n+]([O-])c23)CC1 ?
Outgoing: class 1

Incoming: Similarly, CCOP(=O)(/C=C\n1ccc(N)nc1=O)OCC ?
Outgoing: class 0

Incoming: Similarly, CC1COS(=O)N1c1ccccc1 (stereo unspecified) ?
Outgoing: class 0

Incoming: Similarly, Cc1ccc([N+](=O)[O-])cc1S(=O)(=O)Nc1ccc(C2=NN(C(=O)c3ccccc3)C(c3ccccc3O)C2)cc1 (stereo unspecified) ?
Outgoing: class 0

Incoming: Similarly, CN(C)c1n/c(=N/c2ccc(/N=c3\nc(N(C)C)ss3)cc2)ss1 ?
Outgoing: class 0

Incoming: Similarly, CC(=O)Nc1ccc2cc3[nH]c4cc(NC(C)=O)ccc4c3nc2c1 ?
Outgoing: class 0

Incoming: Similarly, O=C(CC(C(=O)c1cccs1)c1cccs1)c1ccccc1Cl (stereo unspecified) ?
Outgoing: class 0

Incoming: Similarly, CC1C(O)Oc2cc3c(cc2C1c1ccccc1O)OCO3 (stereo unspecified) ?
Outgoing: class 0

Incoming: Similarly, O=c1c2ccccc2nc(-c2ccccc2Cl)n1NC1OC(CO)C(O)C(O)C1O (stereo unspecified) ?
Outgoing: class 0

Incoming: Similarly, O=C(NC12CC3CC(CC(C3)C1)C2)n1cnc2c(Cl)ncnc21 ?
Outgoing: class 0

Incoming: Similarly, N#CC1(CCCI)CCCC1 ?
Outgoing: class 0

Incoming: Similarly, O=C1C(=Cc2ccc(F)cc2)C(=O)c2ccccc21 ?
Outgoing: class 0

Incoming: Similarly, O=C(CCCn1ccnc1[N+](=O)[O-])NCCn1ccnc1 ?
Outgoing: class 0

Incoming: Similarly, O=C1CCCc2c1c1c(n2Cc2ccccc2)-c2ccccc2C1=O ?
Outgoing: class 0

Incoming: Similarly, CCC(C)(C)n1c(C)nc2c1C(=O)c1ccccc1C2=O ?
Outgoing: class 0

Incoming: Similarly, COc1ccc(C2c3cc4c(cc3OC(N3CCOCC3)C2C)OCO4)c(OC)c1 (stereo unspecified) ?
Outgoing: class 0

Incoming: Similarly, CCN(CC)CCN1CCN=c2c3cc(OC)ccc3n3cnc4ccc1c2c43 ?
Outgoing: class 0

Incoming: Similarly, Cc1cc(N(CCC#N)S(=O)(=O)c2ccccc2)ccc1/C=N\c1cccc(C(=O)O)c1 ?
Outgoing: class 0

Incoming: Similarly, C=CCc1ccc(O)c(-c2cc(C3Oc4c(-c5cc(CC=C)ccc5O)cc(O)cc4[C@@H]3CO)ccc2O)c1 (stereo partly specified) ?
Outgoing: class 0

Incoming: Similarly, COc1ccccc1NC(=O)C1=C(C)NC(C)=C(C(=O)Nc2ccccc2OC)C1c1ccc([N+](=O)[O-])cc1 ?
Outgoing: class 0

Incoming: Similarly, Cc1c2ccnc(C(N)=O)c2c(C)c2c1[nH]c1ccccc12 ?
Outgoing: class 0

Incoming: Similarly, N#Cc1ccc(Sc2nc3ccccc3[nH]2)cc1 ?
Outgoing: class 0

Incoming: Similarly, COc1cc(/C=C2\C(=O)N(c3ccc(NC(C)=O)cc3)C(c3ccccc3)S2(=O)=O)cc(OC)c1OC (stereo unspecified) ?
Outgoing: class 0

Incoming: Similarly, CCc1cccc(C(C)C)c1NC(=O)C(=O)CC(=O)c1c(C)[n+]([O-])c2ccccc2[n+]1[O-] ?
Outgoing: class 0

Incoming: Similarly, Cc1cc(N(CCC#N)CCC#N)ccc1/C=C\C(=O)Nc1ccccc1 ?
Outgoing: class 0
